growth overview
# Tested on: LOX IMVI melanoma
# protocol_description: NCI-60 one-dose screen, 48 h (100 = growth as untreated, 0 = no growth, -100 = all killed)
# test_settings: 10 µM unless noted
# Experimental: Growth inhibition of the LOX IMVI human tumor cell line is measured as a screen for anti-cancer activity. Cells are grown in 96 well plates and exposed to the test compound for 48 hours. Compounds are tested at a single concentration, which is 10^-5 M for most compounds. The reported endpoint is percent growth (GI% or GIPRCNT), where numbers from 0 - 100% represent growth inhibition, and numbers from -100% - 0 represent cell death. For example, a value of 40 represents 60% growth inhibition. […]
Compounds without any hit were thinned out: in the full panel of roughly 83,000, 20% have a hit.
readout_type: growth (%)

INSERT INTO results (compound, tested_on, readout_type, units_label, recorded_value) VALUES
  ('Nc1nc(Cl)cc(NCc2ccc(CNc3cc(Cl)nc(N)n3)cc2)n1', 'LOX IMVI melanoma', 'growth', '%', 79.5),
  ('CC(C)(C)C(=O)/C=c1/[nH]c(=O)/c(=C/c2ccccc2O)s1', 'LOX IMVI melanoma', 'growth', '%', 40),
  ('CC(C(=O)O)N1C(N)=NNC1c1ccccc1O (stereo not drawn)', 'LOX IMVI melanoma', 'growth', '%', 78.3);

----------
growth overview
# System: UACC-62 melanoma
# protocol_description: NCI-60 one-dose screen, 48 h (100 = growth as untreated, 0 = no growth, -100 = all killed)
# test_settings: 10 µM unless noted
About 83,000 compounds went through this panel and 20% of them were active in at least one assay; those are over-represented in the sample as a whole.
readout_type: growth (%)

INSERT INTO results (compound_structure, tested_on, readout_type, recorded_value) VALUES
  ('COc1cc(C(=O)NNC(=O)c2ccccc2C(=O)O)cc(OC)c1OC', 'UACC-62 melanoma', 'growth', 39.8),
  ('CC(C)Cn1cnc2c3ccccc3nc(NCn3nc(-c4cc(Cl)cc(Cl)c4Cl)oc3=S)c21', 'UACC-62 melanoma', 'growth', 90.1),
  ('COc1ccc(Cl)cc1NC(=O)c1cc2c([nH]1)-c1nc(NC(=O)C(C)C)sc1CC2', 'UACC-62 melanoma', 'growth', 91.7),
  ('COc1ccc2c(c1)O/C(=C/c1ccc(OCC(=O)Nc3ccc(S(N)(=O)=O)cc3)cc1)C2=O', 'UACC-62 melanoma', 'growth', 88);

----------
# System: TK-10 renal
# protocol_description: NCI-60 one-dose screen, 48 h (100 = growth as untreated, 0 = no growth, -100 = all killed)
# test_settings: 10 µM unless noted
Compounds without any hit were thinned out: in the full panel of roughly 83,000, 20% have a hit.
readout_type: growth (%)

INSERT INTO measurements (molecule, tested_on, readout_type, recorded_value) VALUES
  ('COc1cc(C(=O)NNC(=O)c2ccccc2O)cc(OC)c1OC', 'TK-10 renal', 'growth', 85.6),
  ('C=CC(=O)NC(=O)Nc1ccccc1Cl', 'TK-10 renal', 'growth', 45.2),
  ('Nc1c(C(=O)O)[nH]c(=O)[nH]c1=O', 'TK-10 renal', 'growth', 103),
  ('C#C[C@@]1(O)[C@@H](CO)O[C@@H](n2cc(C(F)(F)F)c3c(N)ncnc32)[C@@H]1O', 'TK-10 renal', 'growth', 12.5),
  ('COc1ccc(C2=NN(C(=O)COc3ccc(Cl)cc3)C(O)(c3cc(F)c(Cl)cc3Cl)C2)cc1 (stereo unspecified)', 'TK-10 renal', 'growth', 89.5),
  ('COc1ccc(Cl)cc1NC(=O)c1cc2c(n1C)-c1nc(NC(=O)C(C)C)sc1CC2', 'TK-10 renal', 'growth', 92),
  ('COc1ccccc1NC(=O)COc1ccc(/C=C2/Oc3cc4occc4c(OC)c3C2=O)cc1OC', 'TK-10 renal', 'growth', 119),
  ('O=C1CN(CCN2CC(=O)NC(=O)C2)CC(=O)N1', 'TK-10 renal', 'growth', 107),
  ('Cc1ccc2oc(=O)cc(C3C(C#N)=C(N)Oc4c3ccc3ccccc43)c2c1 (stereo unspecified)', 'TK-10 renal', 'growth', 91.9),
  ('C=C1C(=O)O[C@H]2[C@H]1CC/C(COC(=O)c1ccc3ccccc3c1)=C\CC[C@@]1(C)O[C@@H]21', 'TK-10 renal', 'growth', -95.9),
  ('Nc1ncnc2c1c(C(F)(F)F)cn2[C@@H]1O[C@H](CO)[C@@H](O)[C@H]1O', 'TK-10 renal', 'growth', 4.15),
  ('N#Cc1c2c(c(N)[nH]c1=O)C(=O)NC2(O)c1ccccc1 (stereo unspecified)', 'TK-10 renal', 'growth', 93),
  ('CS(=O)(=O)OCC(COS(C)(=O)=O)C(c1ccccc1)c1ccccc1', 'TK-10 renal', 'growth', 110),
  ('O=C(NOC1OC(CO)C(O)C(O)C1O)Nc1ccccc1 (stereo unspecified)', 'TK-10 renal', 'growth', 109),
  ('Cc1c(C(C)(C)C)cc(C(C)(C)C)c2c1CN(C)CO2', 'TK-10 renal', 'growth', 102),
  ('Nc1ccc(S(=O)(=O)Nc2cc(I)cc(I)c2)cc1', 'TK-10 renal', 'growth', 107);

----------
# System: SR leukemia
# protocol_description: NCI-60 one-dose screen, 48 h (100 = growth as untreated, 0 = no growth, -100 = all killed)
# test_settings: 10 µM unless noted
About 83,000 compounds went through this panel and 20% of them were active in at least one assay; those are over-represented in the sample as a whole.
# cutoff 80% applies to growth; >= gives yes (1), < gives no (0)

INSERT INTO assay_data (compound, label) VALUES
  ('COc1cc(Nc2ncccc2C(=O)Nc2nc3ccc(F)cc3s2)cc(OC)c1OC', 'yes (1)'),
  ('C=CC(C)(O)CCC1C(=C)CCC2C(C)(C)CCCC12C (configuration not stated)', 'yes (1)'),
  ('Oc1ccc(O)c(-[n+]2ccccc2)c1', 'yes (1)'),
  ('O=C(Nc1ccc(F)cc1)Nc1ccc(Br)c(C(F)(F)F)c1', 'no (0)'),
  ('O=[N+]([O-])c1ccc(NS(=O)(=O)c2ccccc2)c2ccccc12', 'no (0)'),
  ('CC(/C=C/C=C(\C)[C@H](O)[C@H](C)C(=O)O[C@H]1C[C@H](C)C=C2C=C[C@@]3(C)O[C@@H](O)CC(=O)[C@]3(C)[C@H]21)=C\C=C\C(=O)O', 'no (0)'),
  ('CC(C)(CCN=C(N)Nc1ccccn1)c1ccc(C(F)(F)F)cc1', 'no (0)'),
  ('COc1cc(CN(c2ccc(Cl)cc2)C2OC(=O)c3ccccc32)cc(OC)c1OC (configuration not stated)', 'no (0)'),
  ('COc1ccc2c(c1)/C(=C/c1c(-c3cc(OC)c(OC)c(OC)c3Br)nc3sccn13)C(=O)N2', 'yes (1)'),
  ('CC1OC(n2c3ccccc3c3c4c(c5c6ccccc6[nH]c5c32)C(=O)N(CCN[C@@H]2CCC[C@H]2N)C4=O)CC(O)C1O (some centres not stated)', 'no (0)'),
  ('COCCNC(C(=O)c1ccccc1)c1ccccc1 (configuration not stated)', 'yes (1)');

----------
# Tested on: SF-295 CNS
# protocol_description: NCI-60 one-dose screen, 48 h (100 = growth as untreated, 0 = no growth, -100 = all killed)
# test_settings: 10 µM unless noted
About 83,000 compounds went through this panel and 20% of them were active in at least one assay; those are over-represented in the sample as a whole.
growth overview
readout_type: growth (%)

INSERT INTO results (molecule, units_label, recorded_value) VALUES
  ('COc1ccc(SC2c3ccc(O)cc3Oc3nc(N)c(C#N)c(N)c32)cc1 (stereo unspecified)', '%', 76.8),
  ('Cc1ccc(/C=C2/C(=O)Nc3cc(Cl)c(-c4csc(N)n4)cc32)cc1', '%', 70.8),
  ('Nc1nc(-c2cc3c(cc2Cl)NC(=O)/C3=C/c2ccc(Cl)cc2)cs1', '%', 60.5),
  ('C=C1C(=O)O[C@H]2[C@H]1CC/C(COC(=O)c1cc(OC)c(OC)c(OC)c1)=C\CC[C@@]1(C)O[C@@H]21', '%', 51),
  ('Nc1nc(Nc2ccc(OCc3cccc(F)c3)cc2)c2c(n1)[nH]c1ccc(O)cc12', '%', -69.2),
  ('COc1ccc(C2CC(c3cc(Cl)c(C)cc3OC)=NN2c2ccc(S(N)(=O)=O)cc2)cc1OC (stereo unspecified)', '%', 123),
  ('O=C(Nc1ccccc1F)Nc1ccccc1Cl', '%', 81.4),
  ('O=C(Nc1ccc(-n2cc(-c3ccncc3)c(-c3ccc(O)c(Cl)c3)n2)cc1)Nc1ccc(Cl)c(C(F)(F)F)c1', '%', -10.3),
  ('O=C(NCCNc1nccc(-c2c(-c3cccc(O)c3)nc3sccn23)n1)Nc1cccc(C(F)(F)F)c1', '%', 75.5),
  ('COc1ccc2c(c1)OC(N(C(C)=O)C(C)=O)=C(C#N)C2c1ccc(F)cc1 (stereo unspecified)', '%', 18.3),
  ('O=C1C(SCCO)=C(SCCO)C(=O)N1c1ccc(-c2ccccc2)cc1', '%', 103),
  ('Cc1cc2nc(-c3c(N)ncc(C#N)c3-c3ccc(Cl)cc3)[nH]c2cc1C', '%', 58.3),
  ('O=C(c1ccccc1)[C@H]1[C@@H]2CCCN2[C@]2(C(=O)Nc3ccc(F)cc32)[C@]12C(=O)Nc1ccccc12', '%', 97.6),
  ('COc1cc(/C=C/C(=O)c2c(C)n([O-])c3cc(C)c(C)cc3[n+]2=O)cc(OC)c1OC', '%', 71.7),
  ('COc1cc(/C=C2/Oc3cc4occc4c(OC)c3C2=O)ccc1OCC(=O)Nc1ccncc1', '%', 107),
  ('COc1ccc(-c2ccc(NC(=O)Nc3ccc(Cl)c(C(F)(F)F)c3)c(C)n2)cc1', '%', 47),
  ('O=C(Nc1cccc(-n2ccc3c(NC(=O)c4ccccc4)nccc32)c1)c1cc(N2CCOCC2)cc(C(F)(F)F)c1', '%', -24.4),
  ('COc1ccc2c(c1)C(=O)/C(=C/c1ccc(OCC(=O)c3ccc(Cl)cc3)cc1)O2', '%', 73.7),
  ('c1ccc(-c2nc3sc(C(c4ccccc4)c4ccccc4)nn3c2-c2ccccc2)cc1', '%', 98.6),
  ('COc1cc(-c2nc3ccccc3s2)ccc1OCc1nc2n(n1)S(=O)(=O)c1ccccc1N2C', '%', 61.3),
  ('CCCCCCCCCCCC(=O)OCCNC(=O)C[n+]1ccccc1', '%', 78.7),
  ('COc1cc(C(=O)NNC(=O)c2ccccc2O)cc(OC)c1OC', '%', 98.2),
  ('Cc1cn(C2CC(F)C(CO)O2)c(=O)[nH]c1=O (stereo unspecified)', '%', 76.8),
  ('CCCN1C(=O)CSC1=Nc1ccc2cc3ccc(N=C4SCC(=O)N4CCC)cc3nc2c1', '%', 23),
  ('O=C(Nc1ccc(-n2ccc3c(NC(=O)c4ccccc4)nccc32)cc1)c1cccc(C(F)(F)F)c1', '%', 11.3),
  ('O=c1[nH]ccc2nc(N3CCC(O)CC3)nc(Nc3cccc(C(F)(F)F)c3)c12', '%', 96.8),
  ('CCc1ccc(C2=C/C(=C/c3ccc(Cl)cc3)C(=O)N2CCc2ccc(S(N)(=O)=O)cc2)cc1', '%', 25.9),
  ('O=C(Nc1ccccc1Cl)c1c[nH]c(=O)c(-c2ccc(N3CCCOC4(CC4)C3)cc2)c1', '%', 55.3),
  ('O=C(Nc1ccc(-n2ccc3c(NC(=O)c4ccccc4)ncnc32)cc1)Nc1cccc(Cl)c1Cl', '%', -47.9),
  ('Fc1ccc(/C=N/n2c(-c3cc(Cl)cc(Cl)c3Cl)nn(CNc3ccc(Cl)nn3)c2=S)cc1', '%', 121),
  ('COc1cccc(/C=N/C(=S)NC2(C)C3CCC(C3)C2(C)C)c1O (stereo unspecified)', '%', 86.1),
  ('Cc1nc(N)nc(SCc2ccccc2)c1Br', '%', 99.1),
  ('COc1ccc(/C=C/C(=O)/C=C(/C=C/c2ccc(OC)c(OC)c2OC)OB(F)F)c(OC)c1OC', '%', 56.4),
  ('CC(=O)N1N=C(CCC(=O)c2nc3ccc([N+](=O)[O-])cc3[nH]2)OC1c1ccc(O)cc1 (stereo unspecified)', '%', 96.4),
  ('OCc1cnccc1NC12CC3CC(CC(C3)C1)C2', '%', 102),
  ('CCC(N)(C(=O)O)c1ccc(F)cc1 (stereo unspecified)', '%', 108);
